# Test system: PPARg:RXRa IVT, anti-PPARg (NR concentration 270 nM, RXRa partner concentration 90 nM)
# assay_notes: PBM binding z-score (relative to random genomic background probes); higher = stronger binding; sequences stand for … in GC…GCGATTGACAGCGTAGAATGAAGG
Rule: T for PBM binding z-score not less than 2, F for anything less.

CCTGCAAGGTCAATGGTCAGCTAAAGCAGCTCGC = T
GCTGCTAGGCCAACTGATGGTCAGCTAAAGCTCG = F
AGATTGAGGTTAAGATCAGGGAAACAGAATACAT = T
TCATATAGGTAAAGGGTGAAAGTCGGTGTGGTAA = T

For this sequence, is measured PBM binding z-score 2 or higher? TCTTCTAGATCAGCAGGTTAAGAAAGCTGGCCAA
F

Queued: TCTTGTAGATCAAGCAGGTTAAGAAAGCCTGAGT
F

Can you handle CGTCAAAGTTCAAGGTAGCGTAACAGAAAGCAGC next?
F

Continue with CCGACTGGGGCAGAAAGGTTTCCATACCATCCGG
F

Can you check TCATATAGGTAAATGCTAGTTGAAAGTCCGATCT next?
T

Could you do the same for TCACGGAGGACACGAAAGGTCAGAGCTCGACATC , please?
F

Consider next the sequence TCTATTAGTTGATAAGGGCAACCGAAACAGCGGA in the same way.
F

Repeat for the following sequence: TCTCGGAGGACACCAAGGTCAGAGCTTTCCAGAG
F

====

# System: THRa homodimer (NR concentration 90 nM)
# assay_notes: PBM binding z-score (relative to random genomic background probes); higher = stronger binding; sequences stand for … in GC…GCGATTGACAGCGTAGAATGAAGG
Reported PBM binding z-score values for a set of sequences
No unit in the answer, please; the number alone is enough.

ATAGACAGGTGAGTGAAGGTAACTCAGCTGGACG = -0.333
ACTAGCAGGCCTAGTTTGGGTCACTCAAACAAAG = 0.883
TCTTGTAGATCAAAAGGAGGTTAAGAAAGATCGA = -0.613
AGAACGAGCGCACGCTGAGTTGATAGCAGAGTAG = -1.21
TCATATAGGTAATAGAGGTGAAAGTCGGCATCTA = 0.432

Entry under review: CGAAGTAGGTCATCCAGGACAGTGAATACATTGA . Reported PBM binding z-score?
1.46

Another sequence to check: TTACCAAGGTGAAGGTCCTTGATCCCTCTGTAGA
0.841

====

# Test system: FXR:RXRa (NR concentration 270 nM, RXRa partner concentration 90 nM)
# assay_notes: PBM binding z-score (relative to random genomic background probes); higher = stronger binding; sequences stand for … in GC…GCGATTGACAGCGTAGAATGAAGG
assay_metric: PBM binding z-score
Answer as a number with no unit attached.

Answered cases to consult:
GGAACGAGGGCAAAATTGATAGCATCTGTCGACG = 0.343
TCTATTAGTTGATTAGGCCAACCGAAACAGCGGA = 0.75
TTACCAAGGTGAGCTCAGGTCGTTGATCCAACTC = 1.26
AGAACGAGGGCAATGAGTTGATAACACGGGTGGC = 0.198
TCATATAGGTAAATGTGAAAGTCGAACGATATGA = 0.203
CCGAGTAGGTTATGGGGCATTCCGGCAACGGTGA = 0.0637

Please look up its PBM binding z-score: CGTCCAAGGTCAAAGGACAGTGAAGAGATGACGG
6.9

Can you handle TCTTGTGGATCAGCAGGTTAAGAAAGCTGGCCAA next?
0.261

Try this sequence next: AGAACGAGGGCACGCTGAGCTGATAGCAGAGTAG
0.647

Measured values drawn from the supplement of paper PMC6555819 for this set.
